Attribution: patent US20180371100A1

I'd appreciate it if you could supply EC50 values for the items below.
Molecular target: T1, FLAG fusion human CRTH2 (human, UniProt Q9Y5Y4 1-395)
T1 construct: Expressed on rat 3Y1-B cells; also called human CRTH2 with a C terminal to which a FLAG tag was added; not shown: FLAG tag at the C terminal
T1 sequence: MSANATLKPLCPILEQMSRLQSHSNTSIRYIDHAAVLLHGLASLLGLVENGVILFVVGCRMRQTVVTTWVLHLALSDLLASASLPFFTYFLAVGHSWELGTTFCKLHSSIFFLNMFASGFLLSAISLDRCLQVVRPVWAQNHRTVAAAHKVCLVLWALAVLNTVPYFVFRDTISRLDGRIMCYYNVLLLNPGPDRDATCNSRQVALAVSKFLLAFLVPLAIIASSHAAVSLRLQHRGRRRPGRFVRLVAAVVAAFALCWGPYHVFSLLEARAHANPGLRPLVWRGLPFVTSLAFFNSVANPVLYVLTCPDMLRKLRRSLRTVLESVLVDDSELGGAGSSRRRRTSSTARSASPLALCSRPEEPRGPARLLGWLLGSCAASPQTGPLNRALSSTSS
Assay: flow cytometry on FLAG fusion human CRTH2-expressing 3Y1-B cells; logistic fit of Geomean; ± is the standard error
# value in µg/mL; strip the unit string

Input humanized Lym2 antibody LV0HV2b (antibody, V domains shown) VH: EVQLVESGGGVVQPGRSMRLSCAASGFTFSNYYMAWVRQAPGKGLEWVATISYDGSSTYYRDSVKGRFTISRDNAKNSLYLQMNSLRAEDTAVYYCARHRGYYYSGAGYFDYWGQGVMVTVSS VL: DIVMTQTPLSLPVTPGESASISCRSSQSLEYSDGYTYLEWYLQKPGQSPQVLIYGVSNRFSGVPDRFSGSGSGTDFTLKISRVEAEDVGVYYCFQATHDPLTFGQGTKLEIK . Output EC50: 0.72

Lab book: EC50 of humanized Lym2 antibody LV0HV3 (antibody, V domains shown) VH: EVQLVESGGGVVQPGRSMRLSCAASGFTFSNYYMAWVRQAPGKGLEWVATISYDGSSTYYRDSVKGRFTISRDNAKNSLYLQMNSLRAEDTATYYCARHRGYYYSGAGYFDYWGQGVMVTVSS VL: DIVMTQTPLSLPVTPGESASISCRSSQSLEYSDGYTYLEWYLQKPGQSPQVLIYGVSNRFSGVPDRFSGSGSGTDFTLKISRVEAEDVGVYYCFQATHDPLTFGQGTKLEIK noted as 0.69

Given item humanized Lym2 antibody LV0HV2a (antibody, V domains shown) VH: EVQLVESGGGVVQPGRSLRLSCAASGFTFSNYYMAWVRQAPGKGLEWVATISYDGSSTYYRDSVKGRFTISRDNAKNSLYLQMNSLRAEDTATYYCARHRGYYYSGAGYFDYWGQGVMVTVSS VL: DIVMTQTPLSLPVTPGESASISCRSSQSLEYSDGYTYLEWYLQKPGQSPQVLIYGVSNRFSGVPDRFSGSGSGTDFTLKISRVEAEDVGVYYCFQATHDPLTFGQGTKLEIK , the value recorded as its EC50 is 0.65

humanized Lym2 antibody LV2cHV4 (antibody, V domains shown) VH: EVQLVESGGGVVQPGRSMRLSCAASGFTFSNYYMAWVRQAPGKGLEWVATISYDGSSTYYRDSVKGRFTISRDNAKSSLYLQMNSLRAEDTATYYCARHRGYYYSGAGYFDYWGQGVMVTVSS VL: DVVLTQTPLSLPVTPGESASISCRSSQSLEYSDGYTYLEWYLQKPGQSPQVLIYGVSNRFSGVPDRFSGSGSGTDFTLKISRVEAEDVGVYYCFQATHDPLTFGQGTKLEIK has a reported EC50 of 0.54

Entry under test: humanized Lym2 antibody LV2aHV0 (antibody, V domains shown) VH: EVQLVESGGGVVQPGRSLRLSCAASGFTFSNYYMAWVRQAPGKGLEWVATISYDGSSTYYRDSVKGRFTISRDNAKNSLYLQMNSLRAEDTAVYYCARHRGYYYSGAGYFDYWGQGTMVTVSS VL: DIVLTQTPLSLPVTLGESASISCRSSQSLEYSDGYTYLEWYLQKPGQSPQVLIYGVSNRFSGVPDRFSGSGSGTDFTLKISRVEAEDVGVYYCFQATHDPLTFGQGTKLEIK . Its EC50 was 0.66

Value of measured EC50 for the entry humanized Lym2 antibody LV3bHV4 (antibody, V domains shown) VH: EVQLVESGGGVVQPGRSMRLSCAASGFTFSNYYMAWVRQAPGKGLEWVATISYDGSSTYYRDSVKGRFTISRDNAKSSLYLQMNSLRAEDTATYYCARHRGYYYSGAGYFDYWGQGVMVTVSS VL: DVVLTQTPLSLPVTLGESASISCRSSQSLEYSDGYTYLEWYLQKPGQSPQVLIYGVSNRFSGVPDRFSGSGSGTDFTLKISRVEAEDVGVYYCFQATHDPLTFGQGTKLEIK : 0.53

For this binder ( humanized Lym2 antibody LV1HV0 (antibody, V domains shown) VH: EVQLVESGGGVVQPGRSLRLSCAASGFTFSNYYMAWVRQAPGKGLEWVATISYDGSSTYYRDSVKGRFTISRDNAKNSLYLQMNSLRAEDTAVYYCARHRGYYYSGAGYFDYWGQGTMVTVSS VL: DIVMTQTPLSLPVTLGESASISCRSSQSLEYSDGYTYLEWYLQKPGQSPQVLIYGVSNRFSGVPDRFSGSGSGTDFTLKISRVEAEDVGVYYCFQATHDPLTFGQGTKLEIK ), measured EC50 is 0.69

Data point: humanized Lym2 antibody LV2bHV4 (antibody, V domains shown) VH: EVQLVESGGGVVQPGRSMRLSCAASGFTFSNYYMAWVRQAPGKGLEWVATISYDGSSTYYRDSVKGRFTISRDNAKSSLYLQMNSLRAEDTATYYCARHRGYYYSGAGYFDYWGQGVMVTVSS VL: DIVMTQTPLSLPVTLGESASISCRSSQSLEYSDGYTYLEWYLQKPGQSPQVLIYGVSNRFSGVPDRFSGSGSGTDFTLKISRVEPEDVGVYYCFQATHDPLTFGQGTKLEIK ; EC50 = 0.59

EC50 in this record for humanized Lym2 antibody LV3aHV4 (antibody, V domains shown) VH: EVQLVESGGGVVQPGRSMRLSCAASGFTFSNYYMAWVRQAPGKGLEWVATISYDGSSTYYRDSVKGRFTISRDNAKSSLYLQMNSLRAEDTATYYCARHRGYYYSGAGYFDYWGQGVMVTVSS VL: DVVLTQTPLSLPVTPGESASISCRSSQSLEYSDGYTYLEWYLQKPGQSPQVLIYGVSNRFSGVPDRFSGSGSGTDFTLKISRVEPEDVGVYYCFQATHDPLTFGQGTKLEIK : 0.76

Reported EC50 ( humanized Lym2 antibody LV2bHV0 (antibody, V domains shown) VH: EVQLVESGGGVVQPGRSLRLSCAASGFTFSNYYMAWVRQAPGKGLEWVATISYDGSSTYYRDSVKGRFTISRDNAKNSLYLQMNSLRAEDTAVYYCARHRGYYYSGAGYFDYWGQGTMVTVSS VL: DIVMTQTPLSLPVTLGESASISCRSSQSLEYSDGYTYLEWYLQKPGQSPQVLIYGVSNRFSGVPDRFSGSGSGTDFTLKISRVEPEDVGVYYCFQATHDPLTFGQGTKLEIK ) = 0.67
